system: RPMI-8226 leukemia; test: NCI-60 one-dose screen, 48 h (100 = growth as untreated, 0 = no growth, -100 = all killed); details: 10 µM
Compounds without any hit were thinned out: in the full panel of roughly 83,000, 20% have a hit.
Please go through the items and note down their growth.
Write down the numeric answer in % and omit the unit.

# lookup: Cc1cc(Nc2cccc(F)c2)nc(NCc2ccccc2)n1 on RPMI-8226 leukemia, growth = -3.16

Summary: COc1cc(-c2nc(-c3nnc(-c4cccnc4)o3)c3ccccn23)cc(OC)c1OC , RPMI-8226 leukemia, growth = 60.9

// molecule CCCCCCCCCCCC(=O)NCCCN(C)C , assay RPMI-8226 leukemia, growth value: 78.4

# C#Cc1ccc(-n2c(/C=C/c3cc(OC)c(OC)c(OC)c3)nc3ncccc3c2=O)cc1 with RPMI-8226 leukemia: growth is 40.9

###

Tested on: PC-3 prostate
Experiment: NCI-60 one-dose screen, 48 h (100 = growth as untreated, 0 = no growth, -100 = all killed)
Conditions: 10 µM
Experimental: Growth inhibition of the PC-3 human tumor cell line is measured as a screen for anti-cancer activity. Cells are grown in 96 well plates and exposed to the test compound for 48 hours. Compounds are tested at a single concentration, which is 10^-5 M for most compounds. The reported endpoint is percent growth (GI% or GIPRCNT), where numbers from 0 - 100% represent growth inhibition, and numbers from -100% - 0 represent cell death. For example, a value of 40 represents 60% growth inhibition. […]
Compounds without any hit were thinned out: in the full panel of roughly 83,000, 20% have a hit.
So basically: is growth under 50%? Then met. Not under? Then not met.

Query block: Hello, is growth of the following molecule strictly smaller than 50%? COC(=O)c1cnc2c(c1)Oc1ccccc1-c1ccnn1-2
Result block: not met

Query block: # check: growth < 50% for CN1/C(=C\C(I)C(I)C2=[N+](C)c3ccccc3C2(C)C)C(C)(C)c2ccccc21 (stereo not drawn)
Result block: met

Query block: Does COc1ccc(-c2cc(/C=C/C(=O)c3ccc(N)cc3)[nH]n2)cc1OC have growth strictly under 50%?
Result block: met

Query block: Bench note: check whether Cc1ccccc1C1=N[C@@H](Cc2ccccc2)C(=O)c2c(nc3ccccn23)N1 shows growth below 50%
Result block: not met

Query block: I'd appreciate it if you could check whether CCc1ccc(-c2nnc(COc3ccc(-c4nc5cc(Cl)c(Cl)cc5[nH]4)cc3OC)o2)cc1 has growth smaller than 50%.
Result block: not met

Query block: Lab log: compare recorded growth with 50%; is it strictly lower for COc1cc(CSc2nc3ccc(Cl)cc3c(=O)n2-c2ccccc2)cc(OC)c1OC ?
Result block: not met

Query block: Item O=C(/C=C/c1nnc2n(Cc3ccccc3)c(=O)c3c4c(sc3n12)CCCC4)c1ccccc1 : growth beneath 50%, strictly?
Result block: not met

Query block: Threshold test, growth < 50%: COc1ccc(C(=O)/C=C/c2cc(-c3ccc4c(c3)OCO4)n[nH]2)cc1OC
Result block: met

Query block: Is 50% strictly greater than the molecule's reported growth? molecule: CCOc1nc(-c2ccccc2)cc2c(O)c(C(=O)NCCCO)[nH]c(=O)c12
Result block: met

Query block: A record lists CCOC(=O)c1ccc(NC(=O)Nc2nncs2)cc1 . Is its growth below 50%?
Result block: met

Query block: Is 50% strictly greater than the molecule's reported growth? molecule: O=c1oc2c3ccc4cnccc4c3[nH]c2c2ccccc12
Result block: not met

Query block: Bench note: check whether CCCc1c(CC)c(=N)c2ccccc2n1C shows growth below 50%
Result block: not met

Query block: Strictly below 50%: is that where growth of CC(C)/C=N/NC(N)=S sits?
Result block: not met

Query block: hey, is growth for O=C(O)CCCN1C(=O)NC2(C1=O)c1ccccc1-c1ccccc12 lower than 50% or not?
Result block: not met

Query block: Is 50% strictly greater than the molecule's reported growth? molecule: C#CCn1c(-c2cccc(OCCCCl)c2)nc2c1c(=O)n(C)c(=O)n2C
Result block: met

Query block: Consider the molecule Cc1ccc2c(c1)-c1cc(C)nn1-c1ccc(C#N)cc1O2 . Is its growth strictly less than 50%?
Result block: not met

Query block: Would you kindly verify if growth of O=C1/C(=C/c2ccc(O)cc2)Oc2ccc(Cl)cc21 is strictly less than 50%?
Result block: not met

Query block: Take the molecule Cc1ccc(/C(CS(=O)(=O)c2ccc(C)cc2)=N\O)cc1 and say whether its growth is less than 50%.
Result block: not met

Query block: # check: growth < 50% for CCCCN(CCCC)c1ccc(C(=NC(C)CCCN(CC)CC)c2ccc(N(C)C)cc2)cc1 (stereo not drawn)
Result block: met

Query block: Field: below-cutoff. Rule: recorded growth strictly less than 50%. Subject: CC(=O)c1ccc(NCn2nc(-c3ccc(Cl)cc3)oc2=S)cc1
Result block: not met

Query block: Is the reported growth for O=C(c1ccccc1)C(Sc1ccccc1)c1ccccc1 (stereo not drawn) strictly below 50%?
Result block: not met

Query block: Just wondering, is growth of C/C(=N\NC(=O)c1sc(=S)n(C)c1N)c1cc2ccccc2o1 below 50%?
Result block: met

Query block: hey, is growth for C[C@H](NC(=O)[C@@H]1CSSC[C@@H](NC(=O)Cc2nc3ccccc3cc2O)C(=O)NCC(=O)N1C)c1ccccc1 lower than 50% or not?
Result block: not met

Query block: # strict comparison: is reported growth < 50%? input = COc1ccc(-c2nsc3c2NC(=O)CC3c2cccc(Cl)c2)cc1 (stereo not drawn)
Result block: met

Query block: Does the reported growth of COc1cc(OC)cc(-c2ccc(-c3ccc(C(=N)N)cn3)o2)c1 stay below 50%?
Result block: met

Query block: Dear reviewer, please state whether O=S(=O)(NCl)c1ccccc1 has growth strictly beneath 50%.
Result block: not met

Query block: Confirm or reject: growth of COc1cc(C2C=C(c3ccc(Cl)cc3)N=C3SC(C)=CN32)cc(OC)c1OC (stereo not drawn) lies strictly below 50%
Result block: not met

Query block: # strict comparison: is reported growth < 50%? input = CC1(C)CC(OCCCC[P+](c2ccccc2)(c2ccccc2)c2ccccc2)CC(C)(C)N1O
Result block: met

Query block: Given CN(C)Cc1cccs1 , is recorded growth strictly lower than 50%?
Result block: not met

Query block: Answer whether the molecule CN(C1c2ccccc2Oc2ccccc21)S(=O)(=O)c1cc(Cl)ccc1Cl has growth strictly less than 50%
Result block: not met

Query block: Regarding Fc1ccc(-c2cc(C(Cl)Cl)no2)cc1 , kindly confirm whether its growth is beneath 50%.
Result block: not met

Query block: # TODO verify growth < 50% strictly for this molecule: N#Cc1ccc(-n2cnc(NC(=O)[C@H]3CCN(C#N)C3)c2)cc1
Result block: met

Query block: Below 50% on growth? Entry COc1cc2nc(Sc3sc(N)nc3C)n(-c3ccc(Oc4ccccc4)cc3)c(=O)c2cc1OC
Result block: not met

Query block: growth strictly < 50% for this molecule? CCCCC(=O)N(c1ccc(Nc2c3ccccc3nc3cc([N+](=O)[O-])ccc23)cc1)S(C)(=O)=O
Result block: not met

Query block: Strictly below 50%: is that where growth of COc1cc(-c2nc3ccccc3[nH]2)ccc1OCC(=O)N=Nc1c(O)[nH]c2ccccc12 sits?
Result block: not met

Query block: Say whether its growth is strictly beneath 50%. Entry: Cc1cc(Cl)ccc1Nc1nc(C(F)(F)F)ccc1C(=O)N/N=C/c1ccccc1Cl
Result block: met

Query block: Would you kindly verify if growth of CCOC(=O)c1sc(Nc2ncccn2)nc1-c1ccccn1 is strictly less than 50%?
Result block: not met

Query block: Decide: growth of COc1cc(-c2nc3ccc(C)cc3[nH]2)ccc1OCc1nnc(-c2ccc(CC(C)C)cc2)o1 strictly below 50%?
Result block: not met
